TARGET: Muscarinic acetylcholine receptor M1 (Homo sapiens) (UniProt P11229)
Sequence (P11229 whole entry): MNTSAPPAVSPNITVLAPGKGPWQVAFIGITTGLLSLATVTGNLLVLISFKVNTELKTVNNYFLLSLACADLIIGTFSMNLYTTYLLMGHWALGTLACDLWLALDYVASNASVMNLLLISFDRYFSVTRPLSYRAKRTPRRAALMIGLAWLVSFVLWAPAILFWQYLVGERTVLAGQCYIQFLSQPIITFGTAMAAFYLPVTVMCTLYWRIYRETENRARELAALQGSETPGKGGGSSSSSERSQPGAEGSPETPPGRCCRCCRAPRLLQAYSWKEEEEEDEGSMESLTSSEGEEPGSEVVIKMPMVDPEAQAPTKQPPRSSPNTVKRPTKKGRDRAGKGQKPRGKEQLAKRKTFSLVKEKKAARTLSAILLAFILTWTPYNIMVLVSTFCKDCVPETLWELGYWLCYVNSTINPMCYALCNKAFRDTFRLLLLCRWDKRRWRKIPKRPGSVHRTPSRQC
EXPERIMENT_DESCRIPTION: Ratio of binding affinities at human cloned Muscarinic acetylcholine receptor M1 and human cloned Muscarinic acetylcholine receptor M2.
Threshold 30: Ratio strictly smaller gives class 1, otherwise class 0.

                                   compound  assigned_class
0  CCS(=O)(=O)N1CCC(N2CCN([C@@H](C)c3ccc(S(=O)(=O)c4ccc5c(c4)OCO5)cc3)[C@H](C)C2)CC1         class 0
1  COc1ccc(S(=O)(=O)c2ccc(C(C#N)N3CCN(C4CCCCC4)C[C@@H]3C)cc2)cc1 (stereo partly drawn)         class 1
2  COc1ccc(S(=O)(=O)c2ccc([C@@H](C)N3CCN(C4CCCCC4)[C@@H](C)C3)cc2)cc1         class 1
3  C[C@@H]1CN(C2CCCCC2)CCN1[C@@H](C)c1ccc(S(=O)(=O)c2ccc3c(c2)OCO3)cc1         class 0
4  COc1ccc(S(=O)(=O)c2ccc(C(C#N)N3CCN(C4CCCCC4)C[C@H]3C)cc2)cc1 (stereo partly drawn)         class 0

# TODO verify Ratio < 30 strictly for this compound: COc1ccc(S(=O)(=O)c2ccc(C(C)N3CCN(C4CCCCC4)CC3)cc2)cc1 (stereo not drawn)
class 1

Thanks! And COc1ccc(S(=O)(=O)c2ccc([C@@H](C)N3CCN(C4CCCCC4)[C@H](C)C3)cc2)cc1 ?
class 1
